pIC50 reference
# Experimental System: PSMA (Homo sapiens, UniProt Q04609)
# Construct: endogenous in cells; host or cells: LNCaP cells (CLS: 300265)
# Sequence (Q04609 whole entry): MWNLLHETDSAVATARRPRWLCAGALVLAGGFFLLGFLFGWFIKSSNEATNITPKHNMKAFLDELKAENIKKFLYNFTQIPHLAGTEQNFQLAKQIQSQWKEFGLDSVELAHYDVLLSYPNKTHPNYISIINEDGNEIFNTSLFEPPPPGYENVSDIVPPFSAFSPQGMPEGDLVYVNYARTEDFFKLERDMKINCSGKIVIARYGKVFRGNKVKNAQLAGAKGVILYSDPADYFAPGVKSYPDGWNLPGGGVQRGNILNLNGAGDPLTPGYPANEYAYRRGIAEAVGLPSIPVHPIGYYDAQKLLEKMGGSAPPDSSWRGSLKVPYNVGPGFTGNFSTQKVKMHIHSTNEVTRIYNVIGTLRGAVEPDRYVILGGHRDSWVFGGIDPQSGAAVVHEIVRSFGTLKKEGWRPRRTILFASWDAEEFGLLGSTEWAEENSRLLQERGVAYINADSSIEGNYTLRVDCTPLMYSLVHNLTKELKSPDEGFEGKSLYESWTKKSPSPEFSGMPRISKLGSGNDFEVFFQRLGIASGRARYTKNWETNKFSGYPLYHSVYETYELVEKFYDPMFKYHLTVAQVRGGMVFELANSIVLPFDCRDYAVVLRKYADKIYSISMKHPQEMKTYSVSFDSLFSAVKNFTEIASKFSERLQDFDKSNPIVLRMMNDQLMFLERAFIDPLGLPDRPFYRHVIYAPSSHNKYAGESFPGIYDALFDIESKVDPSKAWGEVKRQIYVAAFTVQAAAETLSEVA
# Test Method Notes: competitive binding assay on LNCaP cells (radioligand 125I-IBA)
# Test Parameters: LNCaP cells 150,000 cells/well, 4 °C, 1 h, c(125I-IBA) = 0.2 nM; mean ± SD (n = 3); read-out: IC50 (affinity to PSMA)
Recall that pIC50 is obtained by taking minus log10 of the concentration measured in molar.

Example entries and their recorded answers appear below.
substance="^natGa-DOTAGA-y-2-nal-k(Sub-KuE) [^natGa-10]" assay_result=8.01
substance="^natGa-DOTAGA-y-2-nal-k((I-f)-Glut-KuE) [^natGa-11]" assay_result=8.03
substance="^natLu-DOTAGA-y-2-nal-k((I-f)-Glut-KuE) [^natLu-11]" assay_result=8.21

// next entry
Look up pIC50 for this substance: ^natLu-DOTAGA-y-2-nal-k(Sub-KuE) [^natLu-10]
8.68
